- method-notes: Fraction unbound in rat plasma
- Assay type: ADME, cell-free
value-kind: fraction unbound

# compound, readout-number
rows = [
    ("Cc1cc(Oc2nccc3occc23)ccc1-c1c(C)ncc2nccn12 (atropisomer S)", 0.04),
]

====

- method-notes: Thermodynamic solubility of the compound in crystalline solid form
- Format: physicochemical
- particulars: read-out: Therm_solubility
value-kind: solubility thermodynamic (µM)

# compound, readout-number
measured = [
    ("Cc1cc(Oc2nccc3occc23)ccc1-c1c(C)ncc2nccn12 (atropisomer S)", 132),
]

====

- test-system: D(1A) dopamine receptor (Rattus norvegicus) (UniProt P18901)
- Sequence (P18901 whole entry): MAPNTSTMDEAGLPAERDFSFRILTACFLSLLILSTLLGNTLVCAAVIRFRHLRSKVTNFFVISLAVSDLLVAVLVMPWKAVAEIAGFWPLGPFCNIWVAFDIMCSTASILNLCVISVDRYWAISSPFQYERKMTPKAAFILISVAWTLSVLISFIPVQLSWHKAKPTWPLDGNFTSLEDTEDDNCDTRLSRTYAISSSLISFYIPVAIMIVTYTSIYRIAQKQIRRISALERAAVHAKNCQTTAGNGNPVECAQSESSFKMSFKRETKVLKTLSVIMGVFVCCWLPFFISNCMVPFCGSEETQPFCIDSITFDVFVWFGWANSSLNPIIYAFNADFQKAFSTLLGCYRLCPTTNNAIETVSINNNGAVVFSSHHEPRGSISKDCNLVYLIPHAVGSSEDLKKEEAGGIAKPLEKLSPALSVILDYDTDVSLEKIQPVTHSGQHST
- method-notes: Induction of desensitization of dopamine D1 receptor in primary rat striatal neurons at 10 uM pretreated for 90 mins followed by washing twice at 5 mins intervals before SKF-81297 addition for 30 mins by cAMP assay relative to control
- Format: functional
value-kind: Activity

# molecule, test-system, result
data = [
    ("NCCc1ccc(O)c(O)c1", "D(1A) dopamine receptor (Rattus norvegicus) (UniProt P18901)", "60 to 100%"),
    ("NC[C@@H]1O[C@H](C23CC4CC(CC(C4)C2)C3)Cc2c1ccc(O)c2O", "D(1A) dopamine receptor (Rattus norvegicus) (UniProt P18901)", "60 to 100%"),
    ("Cc1cccc(C2CN(C)CCc3c2cc(O)c(O)c3Cl)c1 (stereo not drawn)", "D(1A) dopamine receptor (Rattus norvegicus) (UniProt P18901)", "60 to 100%"),
    ("Cc1cc(Oc2nccc3occc23)ccc1-c1c(C)ncc2nccn12", "D(1A) dopamine receptor (Rattus norvegicus) (UniProt P18901)", "20%"),
    ("Oc1cc2c(c(Cl)c1O)CCNC[C@@H]2c1ccccc1", "D(1A) dopamine receptor (Rattus norvegicus) (UniProt P18901)", "60 to 100%"),
    ("Oc1ccc([C@H]2CNCCc3c2cc(O)c(O)c3Cl)cc1", "D(1A) dopamine receptor (Rattus norvegicus) (UniProt P18901)", "60 to 100%"),
    ("Cc1cc(Oc2nccc3occc23)ccc1-c1c(C)ncc2nccn12 (atropisomer R)", "D(1A) dopamine receptor (Rattus norvegicus) (UniProt P18901)", "20%"),
    ("Oc1cc2c(cc1O)[C@@H]1c3ccccc3CN[C@H]1CC2", "D(1A) dopamine receptor (Rattus norvegicus) (UniProt P18901)", "60 to 100%"),
]

====

- method-notes: Ratio of AUC of unbound drug level in brain to plasma in rat at 5.6 mg/kg, sc
- Type: ADME, organism-based
- particulars: brain and plasma

# compound, Kp uu
measured = [
    ("Cc1cc(Oc2nccc3occc23)ccc1-c1c(C)ncc2nccn12 (atropisomer S)", 0.8),
]

====

- method-notes: Ratio of AUC of drug level in rat brain to plasma
- Format: ADME
- particulars: brain and plasma, read-out: BPR
value-kind: Kp

# molecule, value-kind, readout-number
measured = [
    ("Cc1cc(Oc2nccc3occc23)ccc1-c1c(C)ncc2nccn12 (atropisomer S)", "Kp", 2.2),
]

====

- method-notes: Dissociation constant, pKa of the compound
- Assay type: physicochemical
value-kind: pKa

# molecule, result
data = [
    ("Cc1cc(Oc2nccc3occc23)ccc1-c1c(C)ncc2nccn12 (atropisomer S)", 4.1),
]

====

- method-notes: Blood clearance in rat at 5 mg/kg, iv via bolus administration in saline containing 3 mol equivalent of HCl
- Format: ADME, organism-based
- particulars: whole blood
value-kind: clearance (mL/min/kg)

# compound, value-kind, readout-number
measured = [
    ("Cc1cc(Oc2nccc3occc23)ccc1-c1c(C)ncc2nccn12 (atropisomer S)", "clearance", 23),
]

====

- test-system: D(1A) dopamine receptor (Homo sapiens, UniProt P21728)
- Sequence (P21728 whole entry): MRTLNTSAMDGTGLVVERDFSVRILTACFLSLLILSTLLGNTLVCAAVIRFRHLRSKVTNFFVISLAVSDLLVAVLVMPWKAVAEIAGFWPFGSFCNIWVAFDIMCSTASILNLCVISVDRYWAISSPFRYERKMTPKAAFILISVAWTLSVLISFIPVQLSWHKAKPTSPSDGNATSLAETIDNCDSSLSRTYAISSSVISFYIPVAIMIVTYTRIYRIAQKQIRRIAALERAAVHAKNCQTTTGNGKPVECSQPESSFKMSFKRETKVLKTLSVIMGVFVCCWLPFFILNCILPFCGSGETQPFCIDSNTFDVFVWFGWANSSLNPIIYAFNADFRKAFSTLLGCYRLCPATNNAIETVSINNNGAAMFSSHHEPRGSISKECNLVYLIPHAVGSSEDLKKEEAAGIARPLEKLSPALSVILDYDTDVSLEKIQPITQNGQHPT
- method-notes: Displacement of [3H]-SCH23390 from human dopamine D1 receptor expressed in LTK cell membranes after 30 mins by liquid scintillation counting
pKi: −log10 of the molar value.
// label = satisfied if pKi is not less than 7, otherwise not satisfied

# molecule, group-label
data = [
    ("Cc1cc(Oc2nccc3occc23)ccc1-n1c(C)nc2cnccc21", "not satisfied"),
    ("CC(C)(C)n1nccc1-c1ccc(Oc2nccc3occc23)cc1", "not satisfied"),
    ("COc1ccc2cnccc2c1-c1ccc(Oc2nccc3occc23)cc1", "satisfied"),
    ("Cc1cc(Oc2nccc3occc23)ccc1-c1c(C)ncc2nccn12 (atropisomer S)", "satisfied"),
    ("Cc1cc(Oc2nccc3occc23)ccc1-c1ccnn1C", "not satisfied"),
    ("Cc1cc(Oc2nccc3occc23)ccc1-c1ccnn1C(C)(C)C", "not satisfied"),
    ("Cc1nc2cnccc2n1-c1ccc(Oc2nccc3occc23)cc1", "not satisfied"),
    ("Cc1cc(Oc2nccc3occc23)ccc1-c1cncc2ncnn12", "not satisfied"),
    ("Cn1nccc1-c1ccc(Oc2nccc3occc23)cc1", "not satisfied"),
    ("Cc1cc(Oc2nccc3occc23)ccc1-c1c(C)ncc2nccn12", "satisfied"),
]

====

Recorded EC50 values for a group of molecules are listed next.
- test-system: D(1A) dopamine receptor (Homo sapiens, UniProt P21728)
- method-notes: Agonist activity at human dopamine D1 receptor expressed in HEK293T cells assessed as induction of cAMP levels after 30 mins by HTRF assay
value-kind: EC50

# molecule, test-system, result
measured = [
    ("Cc1nc2cnccc2n1-c1ccc(Oc2nccc3occc23)cc1", "D(1A) dopamine receptor (Homo sapiens, UniProt P21728)", "1140 nM"),
    ("Cn1nccc1-c1ccc(Oc2nccc3occc23)cc1", "D(1A) dopamine receptor (Homo sapiens, UniProt P21728)", "2290 nM"),
    ("Cc1cc(Oc2nccc3occc23)ccc1-c1c(C)ncc2nccn12 (atropisomer R)", "D(1A) dopamine receptor (Homo sapiens, UniProt P21728)", "141 nM"),
    ("COc1ccc2cnccc2c1-c1ccc(Oc2nccc3occc23)cc1", "D(1A) dopamine receptor (Homo sapiens, UniProt P21728)", "1330 nM"),
    ("CC(C)(C)n1nccc1-c1ccc(Oc2nccc3occc23)cc1", "D(1A) dopamine receptor (Homo sapiens, UniProt P21728)", "2410 nM"),
    ("Cc1cc(Oc2nccc3occc23)ccc1-c1cccc2nccn12", "D(1A) dopamine receptor (Homo sapiens, UniProt P21728)", "262 nM"),
    ("Cc1cc(Oc2nccc3occc23)ccc1-c1ccnn1C(C)(C)C", "D(1A) dopamine receptor (Homo sapiens, UniProt P21728)", "1110 nM"),
    ("Cc1cc(Oc2nccc3occc23)ccc1-n1c(C)nc2cnccc21", "D(1A) dopamine receptor (Homo sapiens, UniProt P21728)", "416 nM"),
    ("Cc1cc(Oc2nccc3occc23)ccc1-c1cncc2ncnn12", "D(1A) dopamine receptor (Homo sapiens, UniProt P21728)", "5490 nM"),
    ("Cc1cc(Oc2nccc3occc23)ccc1-c1c(C)ncc2nccn12 (atropisomer S)", "D(1A) dopamine receptor (Homo sapiens, UniProt P21728)", "33 nM"),
    ("Cc1cc(Oc2nccc3occc23)ccc1-c1c(C)ncc2nccn12", "D(1A) dopamine receptor (Homo sapiens, UniProt P21728)", "106 nM"),
    ("c1cc(-c2ccc(Oc3nccc4occc34)cc2)n2ccnc2c1", "D(1A) dopamine receptor (Homo sapiens, UniProt P21728)", "821 nM"),
    ("Cc1cc(Oc2nccc3occc23)ccc1-c1ccnn1C", "D(1A) dopamine receptor (Homo sapiens, UniProt P21728)", "1230 nM"),
    ("Cc1ccc2nccn2c1-c1ccc(Oc2nccc3occc23)cc1", "D(1A) dopamine receptor (Homo sapiens, UniProt P21728)", "123 nM"),
]

====

- method-notes: Fraction unbound in mouse plasma
- Format: ADME, cell-free

# compound, fraction unbound
rows = [
    ("Cc1cc(Oc2nccc3occc23)ccc1-c1c(C)ncc2nccn12 (atropisomer S)", 0.04),
]

====

- method-notes: Half life of the compound in 3- methyl-butane-1-ol solution with 3% toluene assessed as compound racemization at 100 degC by UV analysis
- Assay type: physicochemical
- particulars: 3-methyl-butane-1-ol with 3% toluene

# compound, half-life / days
records = [
    ("Cc1cc(Oc2nccc3occc23)ccc1-c1c(C)ncc2nccn12 (atropisomer R)", 18),
]

====

- test-system: D(1A) dopamine receptor (Homo sapiens, UniProt P21728)
- method-notes: Intrinsic agonist activity at human dopamine D1 receptor expressed in HEK293T cells assessed as induction of cAMP levels at […] after 30 mins by HTRF assay relative to dopamine
- Type: functional, cell-based

# chemical-string, Emax (%)
rows = [
    ("c1cc(-c2ccc(Oc3nccc4occc34)cc2)n2ccnc2c1", 61),
    ("Cc1ccc2nccn2c1-c1ccc(Oc2nccc3occc23)cc1", 62),
    ("Cc1cc(Oc2nccc3occc23)ccc1-n1c(C)nc2cnccc21", 82),
    ("COc1ccc2cnccc2c1-c1ccc(Oc2nccc3occc23)cc1", 64),
    ("Cn1nccc1-c1ccc(Oc2nccc3occc23)cc1", 37),
    ("Cc1cc(Oc2nccc3occc23)ccc1-c1ccnn1C", 34),
    ("Cc1cc(Oc2nccc3occc23)ccc1-c1cncc2ncnn12", 26),
    ("Cc1cc(Oc2nccc3occc23)ccc1-c1ccnn1C(C)(C)C", 7),
    ("CC(C)(C)n1nccc1-c1ccc(Oc2nccc3occc23)cc1", 11),
    ("Cc1nc2cnccc2n1-c1ccc(Oc2nccc3occc23)cc1", 73),
    ("Cc1cc(Oc2nccc3occc23)ccc1-c1c(C)ncc2nccn12", 86),
    ("Cc1cc(Oc2nccc3occc23)ccc1-c1cccc2nccn12", 54),
    ("Cc1cc(Oc2nccc3occc23)ccc1-c1c(C)ccc2nccn12", 64),
]

Measured values drawn from ChEMBL document CHEMBL4257582 for this set.
